- Tested on: mAb 5C10/3A8
- ASSAY: indirect competitive ELISA (ic-ELISA) with CPAMOZ-OVA coating antigen
- Type: binding, mouse
- CONDITIONS: (IC50 of 2-NP-AMOZ / IC50 of compound tested) x 100%, 2-NP-AMOZ set to 100%
The compounds listed here are annotated with their Cross-Reactivity.

Reference set (2 entries):
NN1CC(=O)NC1=O [AHD, 1-aminohydantoin] | <0.01%
O=C1CN(/N=C/c2ccc([N+](=O)[O-])o2)C(=O)N1 [Nitrofurantoin, nitrofurantoin] | <0.01%

Query: Recorded Cross-Reactivity of O=C1OC(CN2CCOCC2)CN1/N=C/c1ccccc1[N+](=O)[O-] (stereo not shown) [2-NP-AMOZ] , please.
Result: 100%

Query: Field entry: O=C1CN(/N=C/c2ccccc2[N+](=O)[O-])C(=O)N1 [2-NP-AHD]
Result: <0.01%

Query: Now give it for NC(=O)N/N=C/c1ccc([N+](=O)[O-])o1 [Nitrofurazone, nitrofurazone] too.
Result: <0.01%

Query: Now consider NNC(N)=O [SEM, semicarbazide] and answer again.
Result: <0.01%

Query: What about this compound? O=Cc1ccc(C(=O)O)cc1 [4-CBA, 4-carboxybenzaldehyle]
Result: <0.01%

Query: Proceed to NN1CCOC1=O [AOZ, 3-amino-2-oxazolidinone]
Result: <0.01%

Query: Field entry: O=C1OC(CN2CCOCC2)CN1/N=C/c1ccc([N+](=O)[O-])o1 (stereo not shown) [Furaltadone, furaltadone]
Result: 8.9%

Query: How about O=C(O)c1ccc(/C=N/N2CC(CN3CCOCC3)OC2=O)cc1 (stereo not shown) [CPAMOZ, carboxyphenyl AMOZ] ?
Result: 122.2%

Query: Likewise for O=C1OCCN1/N=C/c1ccccc1[N+](=O)[O-] [2-NP-AOZ] ?
Result: <0.01%

Query: Now give it for O=Cc1ccccc1[N+](=O)[O-] [2-NBA, 2-nitrobenzaldehyde] too.
Result: <0.01%

Query: Can you check NN1CC(CN2CCOCC2)OC1=O (stereo not shown) [AMOZ] next?
Result: 10.7%
